The measured values listed here are drawn from paper PMC10061536.

system: α-amylase; assay: α-Amylase inhibition assay; assay type: biochemical; details: 1 μM

{"MOLECULE": "Fc1ccc(-c2csc(NN=Cc3cccs3)n2)cc1", "TESTED_SYSTEM": "α-amylase", "% age α-amylase inhibition / %": 51.64}
{"MOLECULE": "CC(=NNc1nc(-c2ccc(F)cc2)cs1)c1ccc(F)cc1", "TESTED_SYSTEM": "α-amylase", "% age α-amylase inhibition / %": 38.00}
{"MOLECULE": "CC(CCc1ccccc1)=NNc1nc(-c2ccc(F)cc2)cs1", "TESTED_SYSTEM": "α-amylase", "% age α-amylase inhibition / %": 30.03}
{"MOLECULE": "CC(=NNc1nc(-c2ccc(F)cc2)cs1)c1cccc(Br)c1", "TESTED_SYSTEM": "α-amylase", "% age α-amylase inhibition / %": 34.92}
{"MOLECULE": "CCOc1ccccc1C=NNc1nc(-c2ccc(F)cc2)cs1", "TESTED_SYSTEM": "α-amylase", "% age α-amylase inhibition / %": 29.58}
{"MOLECULE": "COc1c(F)cccc1C=NNc1nc(-c2ccc(F)cc2)cs1", "TESTED_SYSTEM": "α-amylase", "% age α-amylase inhibition / %": 37.06}
{"MOLECULE": "C[C@H]1O[C@H](O[C@H]2[C@H](O)[C@@H](O)[C@@H](O[C@H]3[C@H](O)[C@@H](O)C(O)O[C@@H]3CO)O[C@@H]2CO)[C@H](O)[C@@H](O)[C@@H]1N[C@H]1C=C(CO)[C@@H](O)[C@H](O)[C@H]1O (stereo partly drawn) [acarbose, reference compound]", "TESTED_SYSTEM": "α-amylase", "% age α-amylase inhibition / %": 53.42}
{"MOLECULE": "Oc1ccc(Cl)cc1C=NNc1nc(-c2ccc(F)cc2)cs1", "TESTED_SYSTEM": "α-amylase", "% age α-amylase inhibition / %": 55.89}
{"MOLECULE": "COc1cc(Br)c(C=NNc2nc(-c3ccc(F)cc3)cs2)cc1OC", "TESTED_SYSTEM": "α-amylase", "% age α-amylase inhibition / %": 35.96}

###

Recorded inhibition at 800 ppm for the following compounds
molecular target: Bovine serum albumin (BSA)-glucose model (Bos taurus, UniProt P02769); assay: In vitro anti-glycation assay, BSA-glucose model; format: biochemical; conditions: read-out: % age antiglycation inhibition
Sequence (P02769 25-607): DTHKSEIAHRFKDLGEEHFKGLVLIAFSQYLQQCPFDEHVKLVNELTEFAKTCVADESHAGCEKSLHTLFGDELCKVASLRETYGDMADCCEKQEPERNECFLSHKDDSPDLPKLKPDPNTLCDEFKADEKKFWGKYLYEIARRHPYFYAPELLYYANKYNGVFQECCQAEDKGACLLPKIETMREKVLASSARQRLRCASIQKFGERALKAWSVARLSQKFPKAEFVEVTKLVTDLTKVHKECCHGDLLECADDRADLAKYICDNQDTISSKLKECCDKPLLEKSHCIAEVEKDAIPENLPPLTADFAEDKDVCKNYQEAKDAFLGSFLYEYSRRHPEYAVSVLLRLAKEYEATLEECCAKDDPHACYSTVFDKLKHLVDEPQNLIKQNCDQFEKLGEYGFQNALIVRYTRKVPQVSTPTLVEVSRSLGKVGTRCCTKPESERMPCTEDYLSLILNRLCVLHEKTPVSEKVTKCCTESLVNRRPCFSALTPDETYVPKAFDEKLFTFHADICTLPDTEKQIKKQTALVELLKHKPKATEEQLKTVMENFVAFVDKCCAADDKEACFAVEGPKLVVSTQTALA

{"COMPOUND": "Fc1ccc(-c2csc(NN=Cc3ccc(C(F)(F)F)cc3)n2)cc1 [3d]", "inhibition at 800 ppm": "90.9%"}
{"COMPOUND": "COc1cc(Br)c(C=NNc2nc(-c3ccc(F)cc3)cs2)cc1OC [3a]", "inhibition at 800 ppm": "87%"}
{"COMPOUND": "Fc1ccc(-c2csc(NN=Cc3ccc[nH]3)n2)cc1 [3m]", "inhibition at 800 ppm": "86.1%"}
{"COMPOUND": "COc1c(F)cccc1C=NNc1nc(-c2ccc(F)cc2)cs1 [3l]", "inhibition at 800 ppm": "86.2%"}

###

system: α-amylase; experiment: α-Amylase inhibition assay; assay type: biochemical; settings: 10 μM
Tick True if % age α-amylase inhibition is 60% or greater. Tick False if % age α-amylase inhibition is less than 60%.

{"COMPOUND": "CC(=NNc1nc(-c2ccc(F)cc2)cs1)c1cccc(Br)c1 [3f]", "LABEL": "True"}
{"COMPOUND": "CC(=NNc1nc(-c2ccc(F)cc2)cs1)c1ccc(F)cc1 [3g]", "LABEL": "True"}
{"COMPOUND": "Cc1ccc(C=NNc2nc(-c3ccc(F)cc3)cs2)c(Br)c1 [3b]", "LABEL": "True"}
{"COMPOUND": "Cc1ccc(C=NNc2nc(-c3ccc(F)cc3)cs2)o1 [3e]", "LABEL": "False"}
{"COMPOUND": "Fc1ccc(-c2csc(NN=Cc3ccc[nH]3)n2)cc1 [3m]", "LABEL": "True"}
{"COMPOUND": "COc1cc(Br)c(C=NNc2nc(-c3ccc(F)cc3)cs2)cc1OC [3a]", "LABEL": "True"}
